- experiment: Intrinsic clearance in human liver microsomes
- Type: ADME, microsome
- condition-parameters: read-out: CLH
recorded-endpoint: CLint scaled (mL/min/kg)
Report the value in mL/min/kg with no unit label.

Please report the recorded CLint scaled for Cc1ccc2nc(N3CCCc4ccc(F)cc4C3)cc(NCCN)c2c1 .
6

What value of CLint scaled has been recorded for this entry: NCCNc1cc(N2CCCc3ccccc3C2)nc2ccccc12
10

---

- experiment: Therapeutic index, ratio of CC50 for human Hep2 cells to EC50 for inhibition of RSV long fusion protein assessed as protection against virus induced cytopathic effect in infected human Hep2 cells
- Assay type: toxicity, cell-based
- condition-parameters: HEp-2 cells, read-out: Ratio CC50/EC50
selectivity ratio values by entry
Respond using a number only.

Below: 4 compounds and their reported selectivity ratio.
INSERT INTO measurements (smiles_entry, data_value) VALUES
  ('CS(=O)(=O)c1ccc2nc(N3CCCc4ccccc4C3)cc(NCCN)c2c1', 2),
  ('Cc1ccc2nc(N3CCS(=O)(=O)c4ccccc4C3)cc(NCCCCCN)c2c1', 778),
  ('NCCNc1cc(N2CCS(=O)(=O)c3ccccc3C2)nc2ccccc12', 8540),
  ('NCCCNc1cc(N2CCc3ccccc3C2)nc2ccccc12', 1);

Which selectivity ratio value belongs to NCCNc1cc(N2CCCc3ccccc3C2)nc2cc(Cl)ccc12 ?
2

---

- experiment: Fraction unbound in human plasma
- Format: ADME, cell-free
recorded-endpoint: fraction unbound
Lab note: write the figure by itself, no unit.

fraction unbound lookup needed for Cc1ccc2nc(N3CCS(=O)(=O)c4ccccc4C3)cc(NCCN)c2c1 , thanks.
0.078

---

- experiment: Fraction unbound in mouse plasma
- Format: ADME, cell-free
recorded-endpoint: fraction unbound
Quick one: just the number, no unit, thanks!

Give its fraction unbound value. Item: Cc1ccc2nc(N3CCS(=O)(=O)c4ccccc4C3)cc(NCCN)c2c1
0.08

---

- experiment: Intrinsic clearance in rat liver microsomes
- Format: ADME, microsome
- condition-parameters: read-out: CLH
// classify: if (CLint scaled < 20 mL/min/kg) Y else N

Please check: CLint scaled for Cc1ccc2nc(N3CCCc4cc(F)ccc4C3)cc(NCCN)c2c1 , strictly under 20 mL/min/kg or not?
N

Decide: CLint scaled of Cc1ccc2nc(N3CC(=O)Nc4ccccc4C3)cc(NCCN)c2c1 strictly below 20 mL/min/kg?
N

API: query returns whether the compound falls strictly under 20 mL/min/kg in CLint scaled. Query: Cc1ccc2nc(N3CCS(=O)(=O)c4ccccc4C3)cc(NCCN)c2c1
Y

---

Measured CC50 at 120 h values are reported for all entries that follow.
- experiment: Cytotoxicity against human Hep2 cells assessed as decrease in cell viability after 5 days by CCK8 assay
- Type: cell-based
- condition-parameters: HEp-2 cells
Just the number please, in µM, no unit attached.

See these solved cases before continuing.
INSERT INTO measurements (compound, u, data_value) VALUES
  ('NCCNc1cc(N2CCS(=O)(=O)c3ccccc3C2)nc2ccccc12', 'µM', 94),
  ('NCCNc1cc(N2CCCc3ccccc3C2)nc2ccc(C(F)(F)F)cc12', 'µM', 6.7),
  ('NCCNc1cc(N2CCCc3ccccc3C2)nc2ccc(F)cc12', 'µM', 8);

Need CC50 at 120 h, item NCC(O)CNc1cc(N2CCc3ccccc3C2)nc2ccccc12 (stereo not drawn)
21

Quick check: CC50 at 120 h of NCC(O)CNc1cc(N2Cc3ccccc3C2)nc2ccccc12 (stereo not drawn) ?
2.9

Entry CC(O)CNc1cc(N2CCc3ccccc3C2)nc2ccccc12 (stereo not drawn) : reported CC50 at 120 h = ?
89

Need CC50 at 120 h, item Cc1ccc2nc(N3CCC(F)(F)c4ccccc4C3)cc(NCCN)c2c1
6.6

Give its CC50 at 120 h value. Item: NCCNc1cc(N2CCCc3ccccc3C2)nc2c(Cl)cccc12
25

Looking for the measured CC50 at 120 h of OCC(O)CNc1cc(N2CCc3ccccc3C2)nc2ccccc12 (stereo not drawn) , can you help?
66

GET /values?readout=CC50 at 120 h&item= NCC(O)CNc1cc(N2CCCc3ccccc3C2)nc2ccccc12 (stereo not drawn)
21

# CC50 at 120 h lookup, item CS(=O)(=O)c1ccc2nc(N3CCCc4ccccc4C3)cc(NCCN)c2c1
13

// lookup CC50 at 120 h for NCCNc1cc(N2CCCc3ccccc3C2)nc2ccccc12
23

Report CC50 at 120 h for NCCNc1cc(N2CCCc3ccccc3C2)nc2cc(Cl)ccc12 please.
7.5

---

- experiment: Intrinsic clearance in human liver microsomes
- Type: ADME, microsome
- condition-parameters: read-out: CLH
Reported CLint scaled values for the following compounds.
Dear colleague, please return just the value in mL/min/kg, with no unit written.

Look over these answered cases.
INSERT INTO results (smiles_entry, u, data_value) VALUES
  ('Cc1ccc2nc(N3CCS(=O)(=O)c4ccccc4C3)cc(NCCN)c2c1', 'mL/min/kg', 5),
  ('NCCNc1cc(N2CCOc3ccccc3C2)nc2ccccc12', 'mL/min/kg', 14),
  ('Cc1ccc2nc(N3CCCc4cc(F)ccc4C3)cc(NCCN)c2c1', 'mL/min/kg', 8);

I am curious: what CLint scaled value has been reported for Cc1ccc2nc(N3CCNc4ccccc4C3)cc(NCCN)c2c1 ?
5

---

Entries and their measured log10(CLint scaled) follow.
- experiment: Intrinsic clearance in rat liver microsomes
- Type: ADME, microsome
- condition-parameters: read-out: CLH
// units: mL/min/kg (pre-log); metric: CLint scaled; scale: log10

INSERT INTO assay_data (smiles_entry, data_value) VALUES
  ('NCCNc1cc(N2CCCc3ccccc3C2)nc2ccccc12', 1.36),
  ('Cc1ccc2nc(N3CCNc4ccccc4C3)cc(NCCN)c2c1', 1.63),
  ('Cc1ccc2nc(N3CCCc4ccc(F)cc4C3)cc(NCCN)c2c1', 2.20),
  ('NCCNc1cc(N2CCS(=O)(=O)c3ccccc3C2)nc2ccccc12', 0.48);

Read the next record carefully.
# query: log10(CLint scaled) of entry NCCNc1cc(N2CCOc3ccccc3C2)nc2ccccc12
1.30

---

CC50 at 120 h for assorted molecules
- experiment: Cytotoxicity against human Hep2 cells assessed as decrease in cell viability after 5 days by CCK8 assay
- Format: cell-based
- condition-parameters: HEp-2 cells

For Cc1ccc2nc(N3CCCc4cc(F)ccc4C3)cc(NCCN)c2c1 , what is its reported CC50 at 120 h?
> 3.2 µM

CC50 at 120 h for Cc1ccc2nc(N3CCCc4ccc(F)cc4C3)cc(NCCN)c2c1 ?
> 3.2 µM

Could you share which CC50 at 120 h value was measured for NCCNc1cc(N2CCCc3ccccc3C2)nc2ccc(Cl)cc12 ?
> 3.2 µM

Which CC50 at 120 h is reported for this molecule? N=C(N)NCCNc1cc(N2CCc3ccccc3C2)nc2ccccc12
> 100 µM

# input molecule: NCCNc1cc(N2CCOc3ccccc3C2)nc2ccccc12 ; wanted: its CC50 at 120 h
> 10 µM
